assay: Liver microsome stability test, mouse; type: in vitro ADME; details: pH 7.4; Mouse liver microsomes, 1µM compound; read-out: Half-life T1/2
Parameter: half-life at 1 µM

# input compound: Cn1c(=O)n(CCCO)c(=O)c2c1nc(C1(F)CCC(F)(F)CC1)n2Cc1ccc(F)c(Cl)c1 ; wanted: its half-life at 1 µM
46 min

---

Molecular target: hTRPC5 (Homo sapiens, UniProt Q9UL62)
Construct: expressed in transfected cells; host or cells: HEK-293
Sequence (Q9UL62 1-973): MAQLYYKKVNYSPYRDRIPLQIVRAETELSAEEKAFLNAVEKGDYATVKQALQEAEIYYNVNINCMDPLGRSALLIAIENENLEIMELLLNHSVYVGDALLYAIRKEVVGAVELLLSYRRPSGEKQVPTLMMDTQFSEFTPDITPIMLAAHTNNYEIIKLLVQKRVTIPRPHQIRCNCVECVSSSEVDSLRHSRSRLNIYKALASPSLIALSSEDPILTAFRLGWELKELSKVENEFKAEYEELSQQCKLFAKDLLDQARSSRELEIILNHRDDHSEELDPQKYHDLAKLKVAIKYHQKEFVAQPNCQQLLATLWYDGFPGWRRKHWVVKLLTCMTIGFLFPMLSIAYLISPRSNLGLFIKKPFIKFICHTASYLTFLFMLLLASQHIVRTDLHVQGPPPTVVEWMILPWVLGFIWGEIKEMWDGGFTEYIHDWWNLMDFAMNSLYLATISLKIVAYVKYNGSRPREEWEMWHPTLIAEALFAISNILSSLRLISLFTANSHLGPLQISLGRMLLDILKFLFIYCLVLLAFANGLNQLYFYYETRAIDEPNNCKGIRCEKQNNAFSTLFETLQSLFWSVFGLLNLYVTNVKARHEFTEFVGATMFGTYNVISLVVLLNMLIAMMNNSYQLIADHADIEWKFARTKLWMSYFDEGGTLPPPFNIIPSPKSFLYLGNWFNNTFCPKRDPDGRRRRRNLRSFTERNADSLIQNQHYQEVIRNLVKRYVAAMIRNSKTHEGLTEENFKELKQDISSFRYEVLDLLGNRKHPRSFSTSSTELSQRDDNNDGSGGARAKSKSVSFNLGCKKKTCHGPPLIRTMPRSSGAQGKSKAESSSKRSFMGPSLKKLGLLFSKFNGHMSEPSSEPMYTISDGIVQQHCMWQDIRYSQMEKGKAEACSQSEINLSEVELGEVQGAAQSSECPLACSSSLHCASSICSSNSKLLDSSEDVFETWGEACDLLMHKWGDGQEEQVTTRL
Test: TRPC5 inhibitory activity assay (FLIPR calcium fluorescence, Englerin A stimulation)
Type: cell-based
Settings: Table 3; read-out: inhibitory activity IC50 TRPC5
Parameter: IC50 (nM)
Reply numerically in nM, unit not repeated.

Example entries and their recorded answers appear below.
> print(dat)
                                   molecule                        target.of.assay  numeric.readout
1  Cn1c(=O)n(CCCO)c(=O)c2c1nc(C1(F)CCC(F)(F)CC1)n2Cc1ccc(F)c(Cl)c1  hTRPC5 (Homo sapiens, UniProt Q9UL62)             0.58
2  Cn1c(=O)n(CCCO)c(=O)c2c1nc(C1(F)CCC(C(F)(F)F)CC1)n2Cc1ccc(Cl)cc1 (stereo not shown)  hTRPC5 (Homo sapiens, UniProt Q9UL62)              5.1
3  Cn1c(=O)n(CCCO)c(=O)c2c1nc(C1(F)CCC(F)(F)CC1)n2Cc1ccc(C(F)(F)F)cc1  hTRPC5 (Homo sapiens, UniProt Q9UL62)              6.9

// next item, IC50 requested
What measured IC50 goes with COC1CCC(F)(c2nc3c(c(=O)n(CCCO)c(=O)n3C)n2Cc2ccc(Cl)cc2)CC1 (stereo not shown) ?
10.2
